- ASSAYED SYSTEM: Protein Wnt-3a (Mus musculus, UniProt P27467)
- Sequence (P27467 whole entry): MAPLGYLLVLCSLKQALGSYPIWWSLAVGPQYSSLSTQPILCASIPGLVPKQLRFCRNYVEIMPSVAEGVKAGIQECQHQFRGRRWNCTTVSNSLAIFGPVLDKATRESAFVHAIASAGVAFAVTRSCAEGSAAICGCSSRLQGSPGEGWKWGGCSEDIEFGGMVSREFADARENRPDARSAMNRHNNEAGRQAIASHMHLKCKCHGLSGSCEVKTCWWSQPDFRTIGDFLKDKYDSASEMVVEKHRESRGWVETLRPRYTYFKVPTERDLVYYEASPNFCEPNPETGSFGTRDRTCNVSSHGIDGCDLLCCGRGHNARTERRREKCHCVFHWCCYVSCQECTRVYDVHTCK
- TEST DESCRIPTION: Wnt3a-driven reporter signaling inhibition, dose response, selectivity assay for Gli-SUFU antagonist project, Wnt-LIGHT cells, luminescence (AID 651570);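 further: Wnt-LIGHT reporter cells stimulated with conditioned medium from Wnt3a-producing cells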
- Format: functional
- MEASUREMENT PARAMETERS: read-out: IC50_Mean
Active and inactive are the calls of the source.
Use one of these outcomes when replying: active, inactive

Record excerpt, results attached:
input: Per the assay record, what outcome was assigned to O=C(N/N=C/c1cc2ccccc2nc1Cl)[C@H]1C[C@@H]1c1ccccc1 ?
output: inactive

input: Continue with O=C(Nc1ccc(C(F)(F)F)cc1)C1CCN(S(=O)(=O)c2ccc(N3CCCC3=O)cc2)CC1
output: active

input: Continue with O=C1N/C(=C\c2ccc(O)cc2)C(O)=C1/C=N/Cc1ccccc1
output: active

input: Continue with C[C@@H]1COC(=O)[C@H](NC(=O)OCC2c3ccccc3-c3ccccc32)C/C=C\C[C@@H](CC(=O)N[C@@H](CO)Cc2ccccc2)C(=O)N1
output: active

input: Continue with CCCCOCCCNc1[nH]cnc2c3ccccc3nc1-2
output: active

input: Continue with Cc1nc2ccccc2c2c1CC(C(C)(Cl)Br)O2 (stereo not given)
output: active

input: Continue with O=C(c1cc(COc2cccc3cnccc23)on1)N1CCCC(CCCO)C1 (stereo not given)
output: active

input: Continue with CCCc1c(CC)c(=N)c2ccccc2n1C
output: active

Others:
input: Per the assay record, what outcome was assigned to Cc1cc(C)c[n+](C(C)C(=O)c2ccc(-c3ccccc3)cc2)c1 (stereo not given) ?
output: active

input: Continue with CCOc1ccc(S(=O)(=O)NCc2ccncc2)cc1NC(=O)c1ccccc1
output: inactive

----------
For each record, write down the corresponding EC50.
- Tested on: HEK293
- TEST DESCRIPTION: NOD1 signaling inhibitors, primary screen, cell-based, luminescence, uHTS (AID 1578)
- Assay type: functional
- MEASUREMENT PARAMETERS: Homo sapiens
The source made the active and inactive calls.

input: Requested field: EC50. Item: NC(=O)c1c(NC(=O)C(=O)N2CCOCC2)sc2c1CCCC2
output: > 20 µM (inactive)

Could you report EC50 for every entry in the following list?
1. O=C(c1ccc(Cn2c(=S)[nH]c3ccccc3c2=O)cc1)N1CCN(c2ccccn2)CC1
2. CCCc1nc(SCC(=O)N2CCC(Cc3ccccc3)CC2)c2c(=O)n(C)c(=O)n(C)c2n1
3. COc1cc(OC)c(OC)cc1/C=C1\CC(C)C/C(=C\c2cc(OC)c(OC)cc2OC)C1=O (centres undefined)

output:
1. 9 µM (active)
2. 5.46 µM (active)
3. 6.38 µM (active)

----------
- TEST DESCRIPTION: growth suppression of beta-catenin-knockout colon cells, dose response, cell-based, HCT116, human colon tumor (AID 1045);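 further: HCT116 colon tumor cells with beta catenin knocked out; cells exposed to compound for 60 hours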
- Assay type: functional
Calls of active or inactive are those of the source.
For each record, write down the corresponding EC50.

The cases that follow already have their EC50 on record.
input: Requested field: EC50. Item: Cc1ccc(-c2cc(C(=O)N3N=C(C(F)F)CC3(O)C(F)F)c3ccccc3n2)cc1C (centres undefined)
output: 39.4 µM (active)

input: Continue with Cc1nc(Nc2ccc(Cl)c(Cl)c2)sc1C(=O)Nc1ccccc1
output: 21.9 µM (active)

Could you report EC50 for every entry in the following list?
1. COc1ccc(-c2cc(C#N)nc(N3CCNCC3)n2)cc1
2. COc1ccc(C(=O)CCN2CCCCCC2)cc1
3. CC(C)(C)c1ccc(C(O)CCCN2CCC(C(O)(c3ccccc3)c3ccccc3)CC2)cc1 (centres undefined)

output:
["9.93 µM (active)", "124 µM (active)", "4.55 µM (active)"]

----------
- ASSAYED SYSTEM: Voltage-gated N-type calcium channel alpha-1B subunit/Amyloid beta A4 precursor protein-binding family A member 1 (Homo sapiens, UniProt Q00975+Q02410)
- Sequence (Q00975 whole entry): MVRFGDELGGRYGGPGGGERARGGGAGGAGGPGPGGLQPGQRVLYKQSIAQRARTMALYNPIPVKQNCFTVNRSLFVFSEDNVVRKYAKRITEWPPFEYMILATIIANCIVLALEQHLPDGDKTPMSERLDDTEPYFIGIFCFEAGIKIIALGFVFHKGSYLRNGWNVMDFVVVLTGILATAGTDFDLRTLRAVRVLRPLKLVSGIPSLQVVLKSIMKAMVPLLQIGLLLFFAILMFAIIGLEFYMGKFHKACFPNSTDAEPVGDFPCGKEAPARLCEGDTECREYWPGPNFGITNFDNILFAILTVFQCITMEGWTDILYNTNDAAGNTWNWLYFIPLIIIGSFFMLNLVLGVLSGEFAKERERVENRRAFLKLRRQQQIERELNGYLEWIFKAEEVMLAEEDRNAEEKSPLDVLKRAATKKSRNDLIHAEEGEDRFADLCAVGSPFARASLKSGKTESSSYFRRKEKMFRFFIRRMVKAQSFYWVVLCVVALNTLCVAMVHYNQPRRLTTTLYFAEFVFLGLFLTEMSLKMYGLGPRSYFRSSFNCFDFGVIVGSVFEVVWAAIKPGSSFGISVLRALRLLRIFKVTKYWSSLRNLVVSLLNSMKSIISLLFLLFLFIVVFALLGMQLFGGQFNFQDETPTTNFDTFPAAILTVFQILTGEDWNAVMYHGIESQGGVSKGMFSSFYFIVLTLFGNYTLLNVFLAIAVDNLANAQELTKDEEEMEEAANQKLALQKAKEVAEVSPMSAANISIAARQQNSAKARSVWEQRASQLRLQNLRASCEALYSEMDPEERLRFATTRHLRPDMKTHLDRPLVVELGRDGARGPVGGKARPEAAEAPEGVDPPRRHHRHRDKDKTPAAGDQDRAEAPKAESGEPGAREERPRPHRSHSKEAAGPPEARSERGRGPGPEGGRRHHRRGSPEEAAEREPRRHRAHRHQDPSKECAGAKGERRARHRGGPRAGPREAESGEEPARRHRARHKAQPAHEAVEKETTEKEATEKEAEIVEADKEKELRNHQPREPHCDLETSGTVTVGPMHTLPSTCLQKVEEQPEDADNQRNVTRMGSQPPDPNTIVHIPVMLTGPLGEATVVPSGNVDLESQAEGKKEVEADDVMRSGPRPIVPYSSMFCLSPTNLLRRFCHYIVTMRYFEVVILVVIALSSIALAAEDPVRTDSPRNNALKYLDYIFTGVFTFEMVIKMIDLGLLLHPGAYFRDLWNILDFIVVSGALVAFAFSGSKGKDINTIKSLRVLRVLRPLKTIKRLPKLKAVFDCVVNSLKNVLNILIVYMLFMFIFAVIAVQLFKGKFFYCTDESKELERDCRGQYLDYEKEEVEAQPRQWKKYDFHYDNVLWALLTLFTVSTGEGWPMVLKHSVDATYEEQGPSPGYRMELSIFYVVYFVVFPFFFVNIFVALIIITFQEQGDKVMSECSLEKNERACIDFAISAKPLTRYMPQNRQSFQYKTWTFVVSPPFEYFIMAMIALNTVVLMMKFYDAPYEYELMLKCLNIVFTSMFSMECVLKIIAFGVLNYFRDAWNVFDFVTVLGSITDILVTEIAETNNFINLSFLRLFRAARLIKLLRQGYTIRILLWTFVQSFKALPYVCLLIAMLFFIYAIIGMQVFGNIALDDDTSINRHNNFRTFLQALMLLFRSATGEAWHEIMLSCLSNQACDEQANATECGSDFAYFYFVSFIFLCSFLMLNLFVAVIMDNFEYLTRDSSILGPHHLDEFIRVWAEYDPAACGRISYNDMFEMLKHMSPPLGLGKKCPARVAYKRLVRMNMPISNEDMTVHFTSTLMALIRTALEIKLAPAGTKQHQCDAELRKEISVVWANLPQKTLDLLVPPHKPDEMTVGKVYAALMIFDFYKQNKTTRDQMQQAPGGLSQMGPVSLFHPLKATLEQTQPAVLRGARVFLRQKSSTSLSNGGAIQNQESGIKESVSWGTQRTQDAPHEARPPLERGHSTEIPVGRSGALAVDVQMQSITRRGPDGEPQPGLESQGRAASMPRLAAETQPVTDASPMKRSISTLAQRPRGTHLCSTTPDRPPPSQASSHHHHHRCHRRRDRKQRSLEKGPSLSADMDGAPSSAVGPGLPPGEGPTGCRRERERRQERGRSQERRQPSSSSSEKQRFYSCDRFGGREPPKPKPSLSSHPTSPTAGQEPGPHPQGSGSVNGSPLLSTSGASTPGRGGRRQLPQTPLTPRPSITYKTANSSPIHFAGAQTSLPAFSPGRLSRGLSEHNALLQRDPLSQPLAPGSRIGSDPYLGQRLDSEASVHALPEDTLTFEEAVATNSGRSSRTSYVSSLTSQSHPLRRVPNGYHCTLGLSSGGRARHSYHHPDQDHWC
- Sequence (Q02410 whole entry): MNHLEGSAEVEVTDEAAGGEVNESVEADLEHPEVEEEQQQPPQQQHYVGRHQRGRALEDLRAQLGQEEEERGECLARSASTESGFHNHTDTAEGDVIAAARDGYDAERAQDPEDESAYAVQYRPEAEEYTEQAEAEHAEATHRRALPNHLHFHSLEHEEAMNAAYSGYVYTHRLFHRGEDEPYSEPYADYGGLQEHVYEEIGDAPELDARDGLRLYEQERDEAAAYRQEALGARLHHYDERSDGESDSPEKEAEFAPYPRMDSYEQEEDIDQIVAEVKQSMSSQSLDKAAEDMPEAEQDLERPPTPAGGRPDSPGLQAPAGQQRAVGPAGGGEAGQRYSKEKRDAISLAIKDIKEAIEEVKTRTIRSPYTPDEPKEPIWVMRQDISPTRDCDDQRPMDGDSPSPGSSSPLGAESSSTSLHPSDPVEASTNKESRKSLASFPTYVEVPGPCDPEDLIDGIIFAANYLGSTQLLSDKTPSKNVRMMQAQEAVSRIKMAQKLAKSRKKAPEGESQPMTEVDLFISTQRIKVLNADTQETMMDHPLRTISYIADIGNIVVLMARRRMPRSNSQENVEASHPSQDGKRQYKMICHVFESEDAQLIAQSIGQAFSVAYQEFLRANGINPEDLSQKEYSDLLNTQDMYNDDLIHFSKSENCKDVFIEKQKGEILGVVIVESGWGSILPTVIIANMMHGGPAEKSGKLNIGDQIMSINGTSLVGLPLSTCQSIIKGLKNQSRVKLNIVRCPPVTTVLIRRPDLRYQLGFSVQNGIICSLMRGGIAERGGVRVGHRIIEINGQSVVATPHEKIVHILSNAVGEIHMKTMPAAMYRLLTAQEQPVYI
- Type: protein assay
The source made the active and inactive calls.
Use one of these outcomes when replying: t for active, f for inactive

Record excerpt, results attached:
input: Per the assay record, what outcome was assigned to N#C/C(=C\c1ccc(OCCN2CCOCC2)cc1)C(=O)Nc1ccc(S(N)(=O)=O)cc1 ?
output: f

input: Continue with Nc1c(C(=O)NC2CC2)sc2nc3c(c(-c4ccco4)c12)CC/C3=C/c1ccco1
output: t

input: Continue with CCOC(=O)C1CCCN(C(=O)Cn2sc3nc(C)cc(C)c3c2=O)C1 (stereo unspecified)
output: f

Others:
input: Per the assay record, what outcome was assigned to CCOC(=O)N1CCN(C(=O)CCN2C(=O)/C(=C\c3cccc(OC)c3)SC2=S)CC1 ?
output: f

input: Continue with O=C(O)COc1ccc(/C=N/NC(=O)c2ccc(-c3csc(Nc4ccc(Cl)cc4)n3)cc2)cc1
output: f

input: Continue with COc1cc2cc3c(N)c(C(=O)Nc4sc(C)c(C)c4C#N)sc3nc2cc1OC
output: f

----------
- ASSAYED SYSTEM: Heat shock factor protein 1 (Mus musculus, UniProt P38532)
- Sequence (P38532 whole entry): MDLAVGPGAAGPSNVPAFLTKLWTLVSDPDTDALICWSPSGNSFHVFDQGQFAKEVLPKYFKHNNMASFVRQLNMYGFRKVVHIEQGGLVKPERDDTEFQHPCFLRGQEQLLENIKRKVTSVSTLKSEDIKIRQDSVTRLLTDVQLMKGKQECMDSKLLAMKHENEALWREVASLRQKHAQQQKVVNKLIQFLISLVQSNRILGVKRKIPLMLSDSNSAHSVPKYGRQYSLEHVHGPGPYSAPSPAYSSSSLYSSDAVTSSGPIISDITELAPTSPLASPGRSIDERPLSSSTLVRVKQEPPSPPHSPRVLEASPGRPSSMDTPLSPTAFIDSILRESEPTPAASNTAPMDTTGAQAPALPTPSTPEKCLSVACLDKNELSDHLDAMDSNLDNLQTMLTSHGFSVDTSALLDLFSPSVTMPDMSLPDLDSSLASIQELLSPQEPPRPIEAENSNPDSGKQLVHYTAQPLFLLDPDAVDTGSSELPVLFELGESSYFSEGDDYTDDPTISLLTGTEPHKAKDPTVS
- TEST DESCRIPTION: inhibition of MG132-induced HSE-luciferase signal, confirmation, cell-based, NIH3T3, luminescence, dose retest (AID 2382);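 further: NIH3T3 fibroblasts with HSF1-driven luciferase reporter stressed by proteasome inhibitor MG132; luminescence from HSF1-driven luciferase expression after 8 hours of MG132 stress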
- Assay type: functional
MEASURED METRIC: EC50

The cases that follow already have their EC50 on record.
input: Requested field: EC50. Item: O=C(CSc1ccc(-c2ccccn2)nn1)NC1CCCCC1
output: > 195 µM (not active)

input: Continue with CCS(=O)(=O)N1CCN(C(=O)c2ccccc2)CC1
output: > 195 µM (not active)

input: Continue with CC(C)(C)C1CCc2c(sc(NC(=O)CSc3nc[nH]n3)c2C#N)C1 (configuration not stated)
output: > 195 µM (not active)

input: Continue with CCOC(=O)c1c(NC(=O)COC(=O)c2nccnc2N)sc(C(=O)N(C)C)c1C
output: > 195 µM (not active)

input: Continue with Cc1cc(O)nc(CCl)n1
output: > 195 µM (not active)

input: Continue with CCN(CC)CCNCc1cc(Cl)ccc1OCc1ccccc1F
output: > 195 µM (not active)

Switching to the query record.
input: Requested field: EC50. Item: CCC1CCCCN1CCCNC(=O)CSc1nc2nc(C)c(Cc3ccc(C)cc3)c(C)n2n1 (configuration not stated)
output: > 195 µM (not active)

----------
- ASSAYED SYSTEM: Replicative DNA helicase DnaB (Mycobacterium tuberculosis, UniProt P9WMR3)
- TEST DESCRIPTION: DnaB intein splicing inhibitors, dose response, biochemical, cell-free fluorescence (AID 449749)
- Type: functional
Active and inactive are the calls of the source.
Use one of these outcomes when replying: Y = active, N = inactive

Record excerpt, results attached:
input: Per the assay record, what outcome was assigned to CC(=O)Oc1ccc2c(=O)oc(-c3ccccc3C)nc2c1 ?
output: N

input: Continue with Cc1sc2ncnc(Sc3nnnn3-c3ccccc3)c2c1C
output: Y

input: Continue with O=C(CCl)N(CCc1ccccc1)CCc1ccccc1
output: Y

input: Continue with COc1ccc(/C(=N/OC(C)=O)c2nccc3cc(OC)c(OC)cc23)cc1OC
output: N

input: Continue with O=C(NNC(=O)c1ccc2ccccc2c1O)c1ccccc1Cl
output: Y

Moving on to the next compound.
input: Per the assay record, what outcome was assigned to O=C(Oc1ccc2ccccc2c1)c1ccco1 ?
output: Y

----------
- ASSAYED SYSTEM: Ubiquitin-conjugating enzyme E2 N (Homo sapiens, UniProt P61088);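 further: Dose-response confirmation in a TR-FRET assay detecting UBC13-driven polyubiquitin chain formation, inhibition measured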
- Sequence (P61088 whole entry): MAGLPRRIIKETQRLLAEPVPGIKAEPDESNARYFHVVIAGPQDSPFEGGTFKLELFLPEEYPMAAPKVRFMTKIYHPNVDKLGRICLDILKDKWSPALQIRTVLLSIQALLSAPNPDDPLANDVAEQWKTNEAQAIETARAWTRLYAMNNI
- Assay type: functional
Active and inactive are the calls of the source.
Use one of these outcomes when replying: active, inactive

Record excerpt, results attached:
input: Per the assay record, what outcome was assigned to CC(C)CC(C(=O)NC(C)(C)C)N(Cc1ccccc1Cl)C(=O)c1snc(C(N)=O)c1N (stereo not drawn) ?
output: active

input: Continue with CNC(=O)COC(=O)/C=C/c1cn(-c2ccccc2)nc1-c1ccc(C)o1
output: inactive

input: Continue with COc1ccc(NS(=O)(=O)c2cc(C(=O)N3CCC3)ccc2C)cc1
output: active

input: Continue with C#CCOCCOCCOCCNc1nc(N2CCN(C(=O)C([C@@H](C)O)n3cc([C@@H](N)CCCCN)nn3)CC2)nc(N2CCN(C(=O)[C@H](CCCN=C(N)N)n3cc(C(N)[C@@H](C)CC)nn3)CC2)n1 (stereo partly drawn)
output: active

input: Continue with COc1ccc(-c2cc(C#N)nc(N3CCNCC3)n2)cc1
output: active

Others:
input: Per the assay record, what outcome was assigned to COC(=O)c1c(-c2ccc(S(C)(=O)=O)cc2)sc2ccc(OC)cc12 ?
output: inactive

input: Continue with CCc1cc2c(=O)n(-c3ccccc3)c(=S)[nH]c2s1
output: inactive

input: Continue with CCc1nc2ccccc2c(C(=O)OCCN2C(=O)c3ccccc3C2=O)c1C
output: inactive

Reference source for all entries: ChEMBL document CHEMBL1201862
